Answer each item with its documented MIC.
- System: Klebsiella pneumoniae
- protocol_details: Antimicrobial activity against blaKPC-positive Klebsiella pneumoniae S11 by broth microdilution method
- Assay type: functional
Numeric only. Scale: µg/mL

The observed MIC for NCC[C@H](O)C(=O)N[C@@H]1C[C@H](N)[C@@H](O[C@H]2O[C@H](CN)[C@@H](O)[C@H](O)[C@H]2O)[C@H](O)[C@H]1O[C@H]1O[C@H](CO)[C@@H](O)[C@H](N)[C@H]1O [AMIKACIN] when tested with Klebsiella pneumoniae stands at 2

The observed MIC for CN(C)c1cc(NC(=O)CNC(C)(C)C)c(O)c2c1C[C@H]1C[C@H]3[C@H](N(C)C)C(O)=C(C(N)=O)C(=O)[C@@]3(O)C(O)=C1C2=O [TIGECYCLINE] when tested with Klebsiella pneumoniae stands at 0.25

The observed MIC for C[C@@H](O)[C@H]1C(=O)N2C(C(=O)O)=C(SCCNC=N)C[C@H]12 [IMIPENEM ANHYDROUS] when tested with Klebsiella pneumoniae stands at 32

The observed MIC for O=C(O)c1cn(C2CC2)c2cc(N3CCNCC3)c(F)cc2c1=O [CIPROFLOXACIN] when tested with Klebsiella pneumoniae stands at 1

The observed MIC for CC(C)(O/N=C(\C(=O)N[C@@H]1C(=O)N2C(C(=O)[O-])=C(C[n+]3ccccc3)CS[C@H]12)c1csc(N)n1)C(=O)O [CEFTAZIDIME] when tested with Klebsiella pneumoniae stands at 16

The observed MIC for C[C@@H](O)[C@H]1C(=O)N2C(C(=O)O)=C(S[C@@H]3CN[C@H](C(=O)N(C)C)C3)[C@H](C)[C@H]12 [MEROPENEM] when tested with Klebsiella pneumoniae stands at 32
